biological target: D(3) dopamine receptor (Homo sapiens, UniProt P35462)
Sequence (P35462 whole entry): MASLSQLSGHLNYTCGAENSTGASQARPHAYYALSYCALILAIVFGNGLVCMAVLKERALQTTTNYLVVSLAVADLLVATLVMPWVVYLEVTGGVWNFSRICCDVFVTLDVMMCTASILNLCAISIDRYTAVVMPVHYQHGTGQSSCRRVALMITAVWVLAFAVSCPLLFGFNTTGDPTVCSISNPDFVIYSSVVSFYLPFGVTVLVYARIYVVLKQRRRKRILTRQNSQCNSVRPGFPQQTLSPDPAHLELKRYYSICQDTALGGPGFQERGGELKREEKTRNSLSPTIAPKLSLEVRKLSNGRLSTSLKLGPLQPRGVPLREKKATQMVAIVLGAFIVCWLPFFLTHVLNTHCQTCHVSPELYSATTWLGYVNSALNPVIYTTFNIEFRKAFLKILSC
pKi: −log10 of the molar value.
measuredAttribute: pKi

// below: answered compounds
1) COc1c(C(=O)NCCN2CCN(c3ccc4ccccc4n3)CC2)cc(Br)c2ccccc12; 6.60
2) CCOc1c(C(=O)NCCN2CCN(c3ccccc3OC)CC2)cc(Br)c2ccccc12; 7.10

1: COc1c(C(=O)NCCN2CCN(c3ccc(Cl)cc3Cl)CC2)cc(Br)c2ccccc12
2: COc1c(C(=O)NCCN2CCN(c3ccccc3C#N)CC2)cc(Br)c2ccccc12
// compare measured pKi, left 1 , right 2 , return larger Let me know the label of the one you choose. 2
(2: 7.30, 1: 7.00)

1: COc1c(C(=O)NCCN2CCN(c3ccc(C)cc3)CC2)cc(Br)c2ccccc12
2: COc1c(C(=O)NCCN2CCN(c3cccc(Cl)c3Cl)CC2)cc(Cl)c2ccccc12
3: COc1c(C(=O)NCCN2CCN(c3ccccc3C)CC2)cc(Br)c2ccccc12
# desc sort on pKi across 3 compounds Output the labels ranked as instructed. 2, 3, 1

====

target: D(3) dopamine receptor (Homo sapiens, UniProt P35462)
pKi: −log10 of the molar value.
measuredAttribute: pKi

1. CCOc1c(C(=O)NCCN2CCN(c3ccccn3)CC2)cc(Br)c2ccccc12; 7.10

A: COc1c(C(=O)NCCN2CCN(c3ccccc3)CC2)cc(Br)c2ccccc12
B: COc1c(C(=O)NCCN2CCN(c3cccc(Cl)c3C)CC2)cc(Br)c2ccccc12
Just tell me: smaller pKi value, A or B ? Let me know the label of the one you choose. B

====

biological target: D(3) dopamine receptor (Homo sapiens)
pKi: −log10 of the molar value.
measuredAttribute: pKi

1) CCOc1c(C(=O)NCCN2CCN(c3ccccc3)CC2)cc(Br)c2ccccc12; 6.60
2) COc1c(C(=O)NCCN2CCN(c3ccccc3)CC2)cc2ccccc2c1Br; 6.50
3) COc1c(C(=O)NCCN2CC=C(c3ccccc3)CC2)cc(Br)c2ccccc12; 7.70
